Assayed target: Brd4 BD1 (Homo sapiens (Human))
Experiment description: HTRF evaluation of bromodomain inhibitors, Brd4 BD1
Assay type: binding
Measurement setup: H4ac4 peptide 50 nM, 4 h at 4° C.
Readout label: IC50 (nM)
Kindly answer with a numeric value in nM, unit omitted.

Task: Identify the reported IC50 for the following entry. "CC[C@H]1[C@@H](C)[C@H](n2cc(-c3ccccc3)nn2)c2cc(C(=O)OC)ccc2N1C(C)=O"
Result: 8310

Task: Identify the reported IC50 for the following entry. "C=CCCCC(=O)Nc1ccc(-c2ccc3c(c2)[C@H](n2cc(-c4ccccc4)nn2)[C@@H](C)[C@@H](CC)N3C(C)=O)cc1"
Result: 2300

Task: Identify the reported IC50 for the following entry. "CC[C@H]1[C@@H](C)[C@H](Nc2ncc(Cl)cn2)c2cc(C(=O)OC)ccc2N1C(C)=O"
Result: 10100

Task: Identify the reported IC50 for the following entry. "C=CCCCC(=O)Nc1ccc(-c2ccc3c(c2)[C@H](Nc2ncc(Cl)cn2)[C@@H](C)[C@@H](CC)N3C(C)=O)cc1"
Result: 6090

Task: Identify the reported IC50 for the following entry. "C=CCCCC(=O)Nc1ccc(-c2ccc3c(c2)[C@@H](n2cc(CCCCC)nn2)[C@H](C)[C@H](CC)N3C(C)=O)cc1"
Result: 4080

* * *

Give Selectivity BD2/BD1 for every item shown.
Assayed target: Brd4 BD2 (Homo sapiens (Human))
Experiment description: HTRF evaluation of bromodomain inhibitors, Brd4 BD2
Assay type: binding
Measurement setup: ratio of the BD1 and BD2 IC50
// return just the number, without any unit appended

Task: System Brd4 BD2 (Homo sapiens (Human)). Read-out Selectivity BD2/BD1. Item "CC[C@H]1[C@@H](C)[C@H](n2cc(-c3ccccc3)nn2)c2cc(C(=O)OC)ccc2N1C(C)=O" . Report value.
Result: 14.7

Task: System Brd4 BD2 (Homo sapiens (Human)). Read-out Selectivity BD2/BD1. Item CC[C@H]1[C@@H](C)[C@H](n2cc(COCCOCC#Cc3cccc4c3CN(C3CCC(=O)NC3=O)C4=O)nn2)c2cc(C(=O)OC)ccc2N1C(C)=O (stereo partly shown) . Report value.
Result: 16.2

Task: System Brd4 BD2 (Homo sapiens (Human)). Read-out Selectivity BD2/BD1. Item "C=CCCCC(=O)Nc1ccc(-c2ccc3c(c2)[C@H](N=[N+]=[N-])[C@@H](C)[C@@H](CC)N3C(C)=O)cc1" . Report value.
Result: 5.1

Task: System Brd4 BD2 (Homo sapiens (Human)). Read-out Selectivity BD2/BD1. Item "CC[C@H]1[C@@H](C)[C@H](N=[N+]=[N-])c2cc(C(=O)OC)ccc2N1C(C)=O" . Report value.
Result: 9.4

Task: System Brd4 BD2 (Homo sapiens (Human)). Read-out Selectivity BD2/BD1. Item CC[C@H]1[C@@H](C)C(n2cc(COCCOCCOCCOCCOCCOCc3cn(C4c5cc(C(=O)OC)ccc5N(C(C)=O)[C@@H](CC)[C@H]4C)nn3)nn2)c2cc(C(=O)OC)ccc2N1C(C)=O (stereo partly shown) . Report value.
Result: 16.4

Task: System Brd4 BD2 (Homo sapiens (Human)). Read-out Selectivity BD2/BD1. Item "CC[C@H]1[C@@H](C)[C@H](n2cc(-c3ccc(C(F)(F)F)cc3)nn2)c2cc(C(=O)OC)ccc2N1C(C)=O" . Report value.
Result: 7.6

Task: System Brd4 BD2 (Homo sapiens (Human)). Read-out Selectivity BD2/BD1. Item CC[C@H]1[C@@H](C)[C@H](n2cc(COCCOCCOCCOCCOCc3cn(C4c5cc(C(=O)OC)ccc5N(C(C)=O)[C@@H](CC)[C@H]4C)nn3)nn2)c2cc(C(=O)OC)ccc2N1C(C)=O (stereo partly shown) . Report value.
Result: 11.5

Task: System Brd4 BD2 (Homo sapiens (Human)). Read-out Selectivity BD2/BD1. Item "C=CCCCC(=O)Nc1ccc(-c2ccc3c(c2)[C@@H](NC(=O)OC(C)C)[C@H](C)[C@H](CC)N3C(C)=O)cc1" . Report value.
Result: 1.2

Task: System Brd4 BD2 (Homo sapiens (Human)). Read-out Selectivity BD2/BD1. Item "CCCCCc1cn([C@H]2c3cc(C(=O)OC)ccc3N(C(C)=O)[C@H](CC)[C@@H]2C)nn1" . Report value.
Result: 0.8

Task: System Brd4 BD2 (Homo sapiens (Human)). Read-out Selectivity BD2/BD1. Item "C=CCCCC(=O)Nc1ccc(-c2ccc3c(c2)[C@@H](N=[N+]=[N-])[C@H](C)[C@H](CC)N3C(C)=O)cc1" . Report value.
Result: 1.4

Task: System Brd4 BD2 (Homo sapiens (Human)). Read-out Selectivity BD2/BD1. Item "CCCCCc1cn([C@@H]2c3cc(C(F)(F)F)ccc3N(C(C)=O)[C@@H](CC)[C@H]2C)nn1" . Report value.
Result: 7.3

Task: System Brd4 BD2 (Homo sapiens (Human)). Read-out Selectivity BD2/BD1. Item "C#CCOCCOCCOCc1cn([C@@H]2c3cc(C(=O)OC)ccc3N(C(C)=O)[C@@H](CC)[C@H]2C)nn1" . Report value.
Result: 11.2

Task: System Brd4 BD2 (Homo sapiens (Human)). Read-out Selectivity BD2/BD1. Item "CC[C@H]1[C@@H](C)[C@H](Nc2ncc(Cl)cn2)c2cc(C(=O)OC)ccc2N1C(C)=O" . Report value.
Result: 9.0

Task: System Brd4 BD2 (Homo sapiens (Human)). Read-out Selectivity BD2/BD1. Item "C#CCOCCOCCOCCOCCOCCOCc1cn([C@@H]2c3cc(C(=O)OC)ccc3N(C(C)=O)[C@@H](CC)[C@H]2C)nn1" . Report value.
Result: 17.2

Task: System Brd4 BD2 (Homo sapiens (Human)). Read-out Selectivity BD2/BD1. Item "C#CCOCCOCCOCCOCCOCc1cn([C@@H]2c3cc(C(=O)OC)ccc3N(C(C)=O)[C@@H](CC)[C@H]2C)nn1" . Report value.
Result: 23.1

Task: System Brd4 BD2 (Homo sapiens (Human)). Read-out Selectivity BD2/BD1. Item CC[C@H]1[C@@H](C)[C@H](n2nnc3c2CCC2C(CO)C2CC3)c2cc(C(=O)OC)ccc2N1C(C)=O (stereo partly shown) . Report value.
Result: 42.1
